// provenance: patent US20240383830A1

IC50 values, listed per item
Target: Butyrylcholinesterase (BuChE) (Homo sapiens)
Assay: Butyrylcholinesterase inhibition efficiency (butyrylthiocholine/DTNB absorbance)
Assay type: biochemical
Details: 0.5 U/ml enzyme, butyrylthiocholine substrate, compound 0-200 μM; read-out: IC50 for BuChE

Below are worked cases with known answers.
Entry C=C(C)[C@@H]1CCC(C)=C[C@H]1c1c(O)cc(O)cc1C#N [compound 1g] : reported IC50 = ?
8.6 µM

For C=C(C)[C@@H]1CCC(C)=C[C@H]1c1c(O)cc(O)cc1Br [compound 1e] then?
9.3 µM

For C=C(C)[C@@H]1CCC(C)=C[C@H]1c1c(O)cc(O)cc1C(C)=O [compound 1p] then?
2 µM

For C=C(C)[C@@H]1CCC(C)=C[C@H]1c1cc(Cl)c(O)cc1O [compound 1f] then?
19.3 µM

For C=C(C)[C@@H]1CCC(C)=C[C@H]1c1c(O)cc(O)cc1OC [compound 1h] then?
55.3 µM

Shifting focus to the compound that follows.
Entry C=C(C)[C@@H]1CCC(C)=C[C@H]1c1ccc(O)c(C(C)=O)c1O [compound 1i] : reported IC50 = ?
7.3 µM

----------
IC50 values, listed per item
Biological target: Acetylcholinesterase (AChE) (Homo sapiens, UniProt P22303)
Sequence (P22303 32-614, species assumed): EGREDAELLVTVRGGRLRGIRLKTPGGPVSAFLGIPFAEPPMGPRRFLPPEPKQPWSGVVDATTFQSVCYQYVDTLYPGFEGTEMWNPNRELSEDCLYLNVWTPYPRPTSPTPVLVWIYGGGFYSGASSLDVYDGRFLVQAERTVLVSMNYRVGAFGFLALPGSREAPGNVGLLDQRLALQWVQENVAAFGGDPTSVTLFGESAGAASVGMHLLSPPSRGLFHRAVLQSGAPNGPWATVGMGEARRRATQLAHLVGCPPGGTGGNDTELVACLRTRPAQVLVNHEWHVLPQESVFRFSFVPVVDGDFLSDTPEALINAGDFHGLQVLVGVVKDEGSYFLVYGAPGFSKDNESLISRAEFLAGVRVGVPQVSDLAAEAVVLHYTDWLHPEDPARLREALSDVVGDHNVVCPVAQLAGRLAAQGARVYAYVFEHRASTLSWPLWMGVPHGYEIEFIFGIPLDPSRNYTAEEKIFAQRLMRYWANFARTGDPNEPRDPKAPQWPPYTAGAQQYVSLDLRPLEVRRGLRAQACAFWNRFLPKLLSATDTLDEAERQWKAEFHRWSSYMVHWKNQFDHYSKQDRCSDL
Assay: Acetylcholinesterase inhibition efficiency (acetylthiocholine/DTNB absorbance)
Format: biochemical
Details: 0.5 U/ml enzyme, acetylthiocholine substrate, compound 0-200 μM; read-out: IC50 for AChE
Enter your answer as a number in µM; do not include the unit.

Below are worked cases with known answers.
Entry C=C(C)[C@@H]1CCC(C)=C[C@H]1c1ccc(O)c(C(=O)O)c1O [compound 1n] : reported IC50 = ?
10.6

For C=C(C)[C@@H]1CCC(C)=C[C@H]1c1c(O)c(C(C)=O)c(O)c([C@@H]2C=C(C)CC[C@H]2C(=C)C)c1O [compound 1j] then?
2

For C=C(C)[C@@H]1CCC(C)=C[C@H]1c1c(O)cc(O)c(C(C)=O)c1O [compound 1l] then?
23.3

Others:
Entry C=C(C)[C@@H]1CCC(C)=C[C@H]1c1cc(C(=O)NCCc2ccc(OC)cc2)c(O)cc1O [compound 1o] : reported IC50 = ?
15.3

For C=C(C)[C@@H]1CCC(C)=C[C@H]1c1ccc(O)c(C(C)=O)c1O [compound 1i] then?
6.6

For C=C(C)[C@@H]1CCC(C)=C[C@H]1c1c(O)cc(O)cc1C(C)=O [compound 1p] then?
4.6

For C=C(C)[C@@H]1CCC(C)=C[C@H]1c1c(O)cc(O)cc1OC [compound 1h] then?
78

For C=C(C)[C@H]1CCC(C)=C[C@@H]1c1c(O)cc(OC)c([C@@H]2C=C(C)CC[C@H]2C(=C)C)c1O [compound 1k] then?
5.3

----------
IC50 values, listed per item
Molecular target: Acetylcholinesterase (AChE) (Homo sapiens)
Experiment: Acetylcholinesterase inhibition efficiency (acetylthiocholine/DTNB absorbance)
Format: biochemical
Enter your answer as a number in µM; do not include the unit.

Entry C=C(C)[C@@H]1CCC(C)=C[C@H]1c1c(O)cc(O)cc1CCc1ccccc1 : reported IC50 = ?
3.3

For C=C(C)[C@@H]1CCC(C)=C[C@H]1c1c(C)cc(O)cc1O then?
2.6

For C=C(C)[C@@H]1CCC(C)=C[C@H]1c1c(O)cc(O)cc1Br then?
20

For C=C(C)[C@@H]1CCC(C)=C[C@H]1c1c(O)cc(O)cc1CCCCC then?
3.1

Others:
Entry C=C(C)[C@@H]1CCC(C)=C[C@H]1c1cc(Cl)c(O)cc1O : reported IC50 = ?
20

For C=C(C)[C@@H]1CCC(C)=C[C@H]1c1cc(C(=O)NCCc2ccc(O)cc2)c(O)cc1O then?
7.3

For C=C(C)[C@@H]1CCC(C)=C[C@H]1c1c(O)cc(O)cc1C#N then?
74

For C=C(C)[C@@H]1CCC(C)=C[C@H]1c1c(O)cc(O)cc1CCC then?
58.2

For C=C(C)[C@@H]1CCC(C)=C[C@H]1c1ccc(O)c(Br)c1O then?
42.6

----------
Biological target: Butyrylcholinesterase (BuChE) (Homo sapiens, UniProt P06276)
Sequence (P06276 29-602): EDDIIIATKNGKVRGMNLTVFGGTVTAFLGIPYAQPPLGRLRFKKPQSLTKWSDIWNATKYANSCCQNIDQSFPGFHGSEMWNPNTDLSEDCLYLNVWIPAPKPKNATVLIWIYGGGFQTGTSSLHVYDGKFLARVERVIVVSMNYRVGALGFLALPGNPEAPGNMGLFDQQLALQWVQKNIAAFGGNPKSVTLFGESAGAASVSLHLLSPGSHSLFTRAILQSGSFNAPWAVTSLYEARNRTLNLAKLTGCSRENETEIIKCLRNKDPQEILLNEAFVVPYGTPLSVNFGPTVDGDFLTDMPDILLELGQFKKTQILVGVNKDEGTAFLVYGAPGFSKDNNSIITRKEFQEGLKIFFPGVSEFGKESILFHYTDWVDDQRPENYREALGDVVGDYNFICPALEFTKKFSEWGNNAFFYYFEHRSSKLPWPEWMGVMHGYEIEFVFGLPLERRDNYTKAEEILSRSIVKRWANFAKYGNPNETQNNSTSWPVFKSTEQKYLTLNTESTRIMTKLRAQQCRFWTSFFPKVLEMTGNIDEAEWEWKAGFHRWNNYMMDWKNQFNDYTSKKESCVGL
Test: Butyrylcholinesterase inhibition efficiency (butyrylthiocholine/DTNB absorbance)
Assay type: biochemical
Conditions: 0.5 U/ml enzyme, butyrylthiocholine substrate, compound 0-200 μM; read-out: IC50 for BuChE
Label key: true means IC50 under 10 µM; false means IC50 of 10 µM or more.

Field: below-cutoff. Rule: recorded IC50 strictly less than 10 µM. Subject: C=C(C)[C@@H]1CCC(C)=C[C@H]1c1c(O)cc(O)c(C(C)=O)c1O
true

For C=C(C)[C@@H]1CCC(C)=C[C@H]1c1ccc(O)c(C(=O)O)c1O then?
false

For C=C(C)[C@@H]1CCC(C)=C[C@H]1c1cc(C(=O)NCCc2ccc(OC)cc2)c(O)cc1O then?
false

Others:
Field: below-cutoff. Rule: recorded IC50 strictly less than 10 µM. Subject: C=C(C)[C@@H]1CCC(C)=C[C@H]1c1c(O)c(C(C)=O)c(O)c([C@@H]2C=C(C)CC[C@H]2C(=C)C)c1O
false

For C=C(C)[C@@H]1CCC(C)=C[C@H]1c1ccc(O)c(Br)c1O then?
false

For C=C(C)[C@@H]1CCC(C)=C[C@H]1c1cc(C(=O)NCCc2ccc(O)cc2)c(O)cc1O then?
true
